B1: H2-Kb / Ed39 (parent complex)
chain 1: GEQVEQRPPHLSVREGDSAVIICTYTDPNSYYFFWYKQEPGAGLQLLMKVFSSTEINEGQGFTVLLNKKDKQLSLNLTAAHPGDSAVYFCATMSNYNVLYFGSGTKLTVEP
chain 2: GALVYQYPRRTICKSGTSMRMECQAVGFQATSVAWYRQSPQKTFELIALSTVNSAIKYEQNFTQEKFPISHPNLSFSSMTVLNAYLEDRGLYLCGARDGSYEQYFGPGTRLTVL
chain 3: not shown
chain 4: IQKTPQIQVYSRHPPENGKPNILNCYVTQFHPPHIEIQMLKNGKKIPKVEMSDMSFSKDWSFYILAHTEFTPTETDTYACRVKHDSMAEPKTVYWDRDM
chain 5: SIINFEKL

# Variants of: B1
# Assay procedure: % of reporter cells activated (NFAT-GFP), raw; note: test concentration or dose not given here
Observation type: ratio to parent
One number for each entry.

Recorded results for 2 variants are shown here.
chain 5 L8H; 0.788
chain 5 I2L; 1.03

Go through the list and state ratio to parent for each entry.
1. chain 5 F5K
2. chain 5 F5M
3. chain 5 S1D
4. chain 5 E6M
5. chain 5 I3P
6. chain 5 I3H

# output
0.374
1.01
0.00365
0.0331
0.293
0.0308

Go through the list and state ratio to parent for each entry.
1. chain 5 L8K
2. chain 5 I3N
3. chain 5 N4I
4. chain 5 L8G
5. chain 5 S1W
6. chain 5 E6G

# output
[0.485, 0.314, 0.00838, 0.676, 0.0114, 0.00768]
